Origin of values: patent US20230374132A1

Target: T1, human CD3E&G complex (Sino Biological Inc., CT041-H0305H) (human, UniProt P07766 23-126; P09693 23-116)
T1 construct: bought heterodimer; also called human CD3E&G antigen
T1 sequence (P07766 23-126, chain 1 of 2): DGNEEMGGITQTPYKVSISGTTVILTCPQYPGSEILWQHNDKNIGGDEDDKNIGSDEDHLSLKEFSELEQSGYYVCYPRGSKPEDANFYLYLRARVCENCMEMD
T1 sequence (P09693 23-116, chain 2 of 2): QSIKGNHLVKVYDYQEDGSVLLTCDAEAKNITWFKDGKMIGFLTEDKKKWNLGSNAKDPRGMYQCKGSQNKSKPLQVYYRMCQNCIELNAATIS
Test: BLI, antibody on sensor
measured.parameter: kon (M⁻¹ s⁻¹)
Provide only the numeric value, understood in M⁻¹ s⁻¹.

Example entries begin here.
hzsp34.100 (antibody, human IgG1, lambda, L234A L235A, V domains shown, CDR mutant of hzsp34.24; IgG1 L234A L235A, lambda) VH: EVQLVESGGGLVQPGGSLKLSCAASGFTFNTYAMNWVRQASGKGLEWVGRIRSKYNNYATYYADSVKDRFTISRDDSKSTLYLQMNSLKTEDTAVYYCARHGNFGGRYVSWFAYWGQGTTVTVSS VL: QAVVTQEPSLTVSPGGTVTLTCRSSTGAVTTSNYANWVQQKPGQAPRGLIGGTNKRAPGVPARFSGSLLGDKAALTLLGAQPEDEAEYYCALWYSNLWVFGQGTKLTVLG
205000
hzsp34.109 (antibody, human IgG1, lambda, L234A L235A, V domains shown, CDR mutant of hzsp34.24; IgG1 L234A L235A, lambda) VH: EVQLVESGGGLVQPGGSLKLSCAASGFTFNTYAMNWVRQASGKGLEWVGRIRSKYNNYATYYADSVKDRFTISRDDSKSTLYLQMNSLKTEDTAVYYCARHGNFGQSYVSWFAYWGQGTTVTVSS VL: QAVVTQEPSLTVSPGGTVTLTCRSSTGAVTTSNYANWVQQKPGQAPRGLIGGTNKRAPGVPARFSGSLLGDKAALTLLGAQPEDEAEYYCALWYRNLWVFGQGTKLTVLG
233000

Pending binder:
# kon lookup, item hzsp34.87 (antibody, human IgG1, lambda, L234A L235A, V domains shown, CDR mutant of hzsp34.24; IgG1 L234A L235A, lambda) VH: EVQLVESGGGLVQPGGSLKLSCAASGFTFNTYAMNWVRQASGKGLEWVGRIRSKYNNYATYYADSVKDRFTISRDDSKSTLYLQMNSLKTEDTAVYYCARHYNFGQSYVSWFAYWGQGTTVTVSS VL: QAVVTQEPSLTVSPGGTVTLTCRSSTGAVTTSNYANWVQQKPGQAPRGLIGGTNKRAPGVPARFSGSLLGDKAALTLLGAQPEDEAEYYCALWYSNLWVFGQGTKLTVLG 165000
